The reported numbers originate from ChEMBL document CHEMBL4513216.

Assay: Toxicity liver stage against HepG2, at 10uM
Type: cell-based
Set-up: test concentration 10 uM, cell line HepG2-A16-CD81EGFP
Conditions: human, HepG2-A16-CD81EGFP cells; read-out: INHIBITION
Listed below: cytotoxicity at 10 µM values for each entry.

- compound: "Cn1cc(C2CCCN2C(=O)Cc2n[nH]c3ccccc23)cn1 (centres undefined)"
  cytotoxicity at 10 µM: "2.56%"
- compound: "CCC(=O)N1CCC2(CC1)CN(CCO)Cc1ccccc12"
  cytotoxicity at 10 µM: "5.23%"
- compound: "CC=C(C)C(=O)NS(=O)(=O)c1ccc(Cl)cn1"
  cytotoxicity at 10 µM: "7.04%"
- compound: "O=C(CC1CCCC1)NCCn1nc2ccccn2c1=O"
  cytotoxicity at 10 µM: "9.97%"
